- ASSAY_SYSTEM: butyrylcholinesterase (Homo sapiens, UniProt P06276)
- Construct: purchased Sigma-Aldrich
- Sequence (P06276 29-602): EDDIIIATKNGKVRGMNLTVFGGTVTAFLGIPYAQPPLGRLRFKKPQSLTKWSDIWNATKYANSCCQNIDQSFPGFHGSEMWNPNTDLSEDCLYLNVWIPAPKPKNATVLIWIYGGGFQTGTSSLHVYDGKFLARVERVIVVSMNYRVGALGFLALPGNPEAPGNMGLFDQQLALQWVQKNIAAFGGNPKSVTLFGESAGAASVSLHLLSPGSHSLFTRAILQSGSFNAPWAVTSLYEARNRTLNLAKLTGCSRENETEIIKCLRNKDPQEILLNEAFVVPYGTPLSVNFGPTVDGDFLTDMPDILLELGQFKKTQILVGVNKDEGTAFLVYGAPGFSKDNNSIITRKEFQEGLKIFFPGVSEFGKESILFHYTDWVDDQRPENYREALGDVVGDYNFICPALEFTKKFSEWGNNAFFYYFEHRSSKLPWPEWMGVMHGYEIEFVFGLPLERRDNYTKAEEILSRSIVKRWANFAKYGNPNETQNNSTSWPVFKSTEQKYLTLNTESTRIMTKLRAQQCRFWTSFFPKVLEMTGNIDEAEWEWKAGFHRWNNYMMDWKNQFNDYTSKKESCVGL
- ASSAY_INFO: Butyrylcholinesterase inhibitory activity by HPLC-DAD (Ellman reaction product TNBA)
- Assay type: biochemical
- MEASUREMENT_CONTEXT: IC50 values Butyrylcholinesterae (μg/mL), alkaloid standards, 0.2 U/mL enzyme, 15 min at 37 °C, pH 7.8
VALUE_KIND: IC50 (µM)
Give your result in µM as a bare value.

Exercise: Recorded IC50 for `CN1CCc2cc3c(cc2C(=O)Cc2ccc4c(c2C1)OCO4)OCO3` , please?
Solution: 52.8

###

- ASSAY_SYSTEM: acetylcholinesterase (Homo sapiens, UniProt P22303)
- Construct: purchased Sigma-Aldrich
- Sequence (P22303 32-614, species assumed): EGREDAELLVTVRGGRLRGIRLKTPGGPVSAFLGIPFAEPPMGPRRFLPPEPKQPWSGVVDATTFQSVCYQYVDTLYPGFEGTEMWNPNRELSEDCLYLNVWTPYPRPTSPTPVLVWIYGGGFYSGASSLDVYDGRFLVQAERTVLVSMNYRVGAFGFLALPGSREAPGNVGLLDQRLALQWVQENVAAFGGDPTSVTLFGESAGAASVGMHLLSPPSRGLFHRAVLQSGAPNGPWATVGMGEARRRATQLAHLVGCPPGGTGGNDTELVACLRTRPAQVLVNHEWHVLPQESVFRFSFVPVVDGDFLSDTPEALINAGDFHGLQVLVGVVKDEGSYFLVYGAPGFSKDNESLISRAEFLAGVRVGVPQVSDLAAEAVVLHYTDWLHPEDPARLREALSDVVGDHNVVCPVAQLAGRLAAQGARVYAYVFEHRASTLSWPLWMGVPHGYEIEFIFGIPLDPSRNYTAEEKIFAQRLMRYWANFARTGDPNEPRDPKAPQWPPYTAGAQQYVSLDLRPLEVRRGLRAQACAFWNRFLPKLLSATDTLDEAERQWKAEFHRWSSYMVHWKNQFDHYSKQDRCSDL
- Assay type: biochemical
- MEASUREMENT_CONTEXT: alkaloid standards; HPLC-DAD; 0.2 U/mL enzyme; 15 min at 37 °C; pH 7.8
VALUE_KIND: pIC50
pIC50 here is simply -log10 of the concentration when that concentration is written in mol/L.

- COMPOUND_STRING: "COc1ccc2c(c[n+](C)c3c4cc5c(cc4ccc23)OCO5)c1OC"
  QUANTITATIVE_RESULT: 6.14

The record that follows has no pIC50 shown yet.
Exercise: Would you kindly share the measured pIC50 for `C[n+]1cc2c3c(ccc2c2ccc4cc5c(cc4c21)OCO5)OCO3` ?
Solution: 5.25
